Each item that follows carries a reported gamma_day10.
Tested on: K562 CRISPRi cells
ASSAY_EXPLANATION: Perturb-seq pooled growth measurement (sgRNA counts, growth phenotype γ, relative activity)
Format: cell-based, human
CONDITION_LABEL: pooled growth phenotype γ of the Perturb-seq sgRNA, day 10, K562 CRISPRi cells

SUBSTANCE	gamma_day10
GINS1_ −_25388381.23-P1P2_08 (guide GGACTAGAGCGAAAGGAGTG; listed as DNA, chemistry not fully specified)	−0.6723
MTOR_ + _11322547.23-P1P2_06 (guide GGGCAGGGGGGCTGAAGCGG; listed as DNA, chemistry not fully specified)	−0.2989
HSPE1_ + _198365089.23-P1P2_14 (guide GGAGACTCGCAGTCCTGCCC; listed as DNA, chemistry not fully specified)	−0.1965
GATA1 −_48645022.23-P1P2_12 (guide GTGAGCTTGCCACATCCGCA; listed as DNA, chemistry not fully specified)	−0.06327
ALDOA_ + _30077139.23-P1P2_00 (guide GGTCACCAGGACCCCTTCTG; listed as DNA, chemistry not fully specified)	−0.3665
TUBB_ + _30688126.23-P1_01 (guide GCAGCAGGAAGGTTCTGAGA; listed as DNA, chemistry not fully specified)	−0.6119
TUBB_ + _30688126.23-P1_06 (guide GCGGCAGGACGGTTCTGAGA; listed as DNA, chemistry not fully specified)	−0.5544
GINS1_ −_25388381.23-P1P2_06 (guide GGACTAGAACGGAAGGAGTG; listed as DNA, chemistry not fully specified)	−0.6548
COX11_ + _53045977.23-P1P2_10 (guide GGCTCTGGCGTCCCGGATGG; listed as DNA, chemistry not fully specified)	−0.1116
RPS15_ −_1438413.23-P1P2_02 (guide GACCAAGGCGATCTCTTCTG; listed as DNA, chemistry not fully specified)	−0.3145
BCR_ + _23523092.23-P1P2_05 (guide GCGCGCGGCGCCCGTCTCAG; listed as DNA, chemistry not fully specified)	−0.2247
DUT_ + _48624411.23-P1P2_01 (guide GCCAGCGAGGAGACCACCGG; listed as DNA, chemistry not fully specified)	−0.6032

All figures here come from patent US20220259593A1.
